Would you mind telling me the reported pEC50 of each entry?
Target: opioid δ receptor (Homo sapiens, UniProt P41143)
Construct: expressed in transfected cells; host or cells: CHO cells
Sequence (P41143 whole entry): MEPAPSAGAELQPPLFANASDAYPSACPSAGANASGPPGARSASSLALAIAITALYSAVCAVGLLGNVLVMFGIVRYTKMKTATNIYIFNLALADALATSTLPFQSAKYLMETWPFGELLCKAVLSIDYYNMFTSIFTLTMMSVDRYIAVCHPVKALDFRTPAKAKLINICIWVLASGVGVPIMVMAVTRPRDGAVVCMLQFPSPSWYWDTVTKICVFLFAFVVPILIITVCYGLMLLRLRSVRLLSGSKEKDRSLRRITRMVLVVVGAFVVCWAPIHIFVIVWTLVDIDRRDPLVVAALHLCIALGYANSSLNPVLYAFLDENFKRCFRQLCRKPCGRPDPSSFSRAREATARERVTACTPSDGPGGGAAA
Method description: Opioid receptor functional test (Lance Ultra cAMP Kit), δ receptor agonist activity
Assay type: cell-based
pEC50: −log10 of the molar value.

Read off the recorded pEC50 for O=C(c1ccccc1)N1C[C@H]2C[C@@]34CC[C@@H]1[C@@H]2[C@@]31CCN(CC2CC2)[C@@H]4Cc2ccc(O)cc21 [Compound 78] > 9.00

Check the records and state pEC50 for O=S(=O)(c1ccccc1)N1C[C@H]2O[C@@]34CC[C@@H]1[C@@H]2[C@@]31CCN(CC2CC2)[C@@H]4Cc2ccc(O)cc21 [Compound 58] > 8.00

New cases:
Provide pEC50 value for the following molecule: O=C(Oc1ccccc1)N1C[C@H]2CC34CCC1C2C31CCN(CC2CC2)C4Cc2ccc(O)cc21 (stereo partly drawn) [Compound 195] > 8.00

----------
Tested on: ICR male mice
Method description: Analgesic activity (acetic acid writhing method)
Type: in vivo
Reported conditions: Mus musculus, sc; 3 mg/kg subcutaneous, 0.6% acetic acid i.p., writhing inhibition rate vs solvent group; hydrochloride was used; read-out: Inhibitory activities against writhing
Please respond with reported inhibition in vivo at 3 mg/kg for every item in the list.

Example compounds with recorded inhibition in vivo at 3 mg/kg:
System ICR male mice. Read-out inhibition in vivo at 3 mg/kg. Item O=C(c1cccc(Cl)c1)N1C[C@H]2C[C@@]34CC[C@@H]1[C@@H]2[C@@]31CCN(CC2CC2)[C@@H]4Cc2ccc(O)cc21 . Report value. 70 to 90%

Find inhibition in vivo at 3 mg/kg for O=C(c1ccccc1)N1C[C@H]2C[C@@]34CC[C@@H]1[C@@H]2[C@@]31CCN(CC2CC2)[C@@H]4Cc2ccc(O)cc21 on ICR male mice and write it down. 50 to 70%

GET inhibition in vivo at 3 mg/kg where system = ICR male mice and item = CC(C)NC(=O)N1C[C@H]2CC34CCC1C2C31CCN(CC2CC2)C4Cc2ccc(O)cc21 (some centres unmarked) 70 to 90%

Enter measured inhibition in vivo at 3 mg/kg, system ICR male mice, for the compound shown: Oc1ccc2c(c1)C13CCN(CC4CC4)C(C2)C12CCC1C3[C@@H](CN1c1cc(F)ccn1)C2 (some centres unmarked) ≥ 90%

Given Cc1cc(C)nc(N2C[C@H]3C[C@@]45CCC2C3[C@@]42CCN(CC3CC3)[C@@H]5Cc3ccc(O)cc32)n1 (some centres unmarked) , report its inhibition in vivo at 3 mg/kg on ICR male mice. ≥ 90%

Give ICR male mice inhibition in vivo at 3 mg/kg for the following compound: Oc1ccc2c(c1)C13CCN(CC4CC4)C(C2)C12CCC1C3[C@@H](CN1c1cnccn1)C2 (some centres unmarked) 70 to 90%

Provide inhibition in vivo at 3 mg/kg, tested on ICR male mice, for Oc1ccc2c(c1)C13CCN(CC4CC4)C(C2)C12CCC1C3[C@@H](CN1c1ccc3ccccc3n1)C2 (some centres unmarked) . 70 to 90%

Proceeding to the next compound to report its inhibition in vivo at 3 mg/kg.
Report its inhibition in vivo at 3 mg/kg with ICR male mice as the test system: O=C(c1ccccc1)N1C[C@H]2C[C@@]34CCC1C2[C@@]31CCN(CC2CC2)[C@@H]4Cc2ccccc21 (some centres unmarked) ≥ 90%
